- target desc: Stimulator of interferon genes protein (Mus musculus)
readout: Kd (µM)

smiles structure: Cc1c(Br)cc2c(=O)c3cccc(CC(=O)O)c3oc2c1C
target desc: Stimulator of interferon genes protein (Mus musculus)
experimental result: 149

---

Each item that follows carries a reported pEC50.
- target desc: Stimulator of interferon genes protein (Mus musculus, UniProt Q3TBT3)
- Sequence (Q3TBT3 whole entry): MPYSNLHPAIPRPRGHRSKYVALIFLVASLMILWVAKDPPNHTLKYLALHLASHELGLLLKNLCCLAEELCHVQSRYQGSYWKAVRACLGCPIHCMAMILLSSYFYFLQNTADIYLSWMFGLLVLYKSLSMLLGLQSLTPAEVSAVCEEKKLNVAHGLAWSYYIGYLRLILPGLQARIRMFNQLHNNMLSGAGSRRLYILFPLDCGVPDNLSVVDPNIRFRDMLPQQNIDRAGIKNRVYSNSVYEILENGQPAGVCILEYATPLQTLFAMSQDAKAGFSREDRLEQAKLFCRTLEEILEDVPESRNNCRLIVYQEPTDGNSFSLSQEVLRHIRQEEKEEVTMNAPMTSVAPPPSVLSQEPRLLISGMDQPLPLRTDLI
- experiment: Agonist activity at STING in […] Cells incubated for 48 hrs by QUANTI-blue assay
- Type: cell-based, 293TA
pEC50: −log10 of the molar value.

compound: COc1cc2c(=O)c3cccc(CC(=O)O)c3[nH]c2c(C)c1C
pEC50: 4.18

compound: COc1ccc2[nH]c3c(C)c(C)ccc3c(=O)c2c1
pEC50: 4.99

compound: COc1ccc2[nH]c3ccccc3c(=O)c2c1
pEC50: 3.87

compound: COc1cc2c(c(C)c1C)N1C(=O)CC3=CC=CC(C2=O)C31 (centres undefined)
pEC50: 4.14

Entry source: ChEMBL document CHEMBL5096152
